# System: M1 central muscarinic cholinergic receptors
# experimental details: Antagonism to rotatory behaviour induced by intrastriatal injection of pirenzepine in the mouse
# Type: in vivo, mouse (female, Swiss, CD 1)
# experimental context: Mus musculus, po; 3 mg/kg p.o., 4 hours before pirenzepine 1 μg intrastriatal; *p<0.05, **p<0.01 Student's test; read-out: % inhibition of pirenzepine-induced rotations
Label MET when change in vivo at 3 mg/kg >= -40%; otherwise NOT MET.

> print(dat)
                                    compound                          target.or.system  category
 1  CN1CCN(CCCNc2nnc(-c3ccc(Cl)cc3)s2)CC1 [SR 45489 A]  M1 central muscarinic cholinergic receptors       MET
 2  CN(C)CCCNc1nnc(-c2ccc(Cl)cc2Cl)s1 [SR 45422 A]  M1 central muscarinic cholinergic receptors   NOT MET
 3  Clc1ccc(-c2nnc(NCc3cccnc3)s2)c(Cl)c1 [SR 45459 A]  M1 central muscarinic cholinergic receptors       MET
 4  Clc1ccc(-c2nnc(NCCCN3CCOCC3)s2)cc1 [SR 45520 A]  M1 central muscarinic cholinergic receptors   NOT MET
 5  CN(C)CCNc1nnc(-c2ccccc2)s1 [C, reference compound]  M1 central muscarinic cholinergic receptors       MET
 6  c1ccc(-c2nnc(NCCN3CCOCC3)s2)cc1 [A, reference compound]  M1 central muscarinic cholinergic receptors       MET
 7  Cc1cc(C)c(-c2nnc(NCc3cccnc3)s2)c(C)c1 [SR 45417 A]  M1 central muscarinic cholinergic receptors   NOT MET
 8  CCN(CC)CCCNc1nnc(-c2ccc(Cl)cc2Cl)s1 [SR 45481 A]  M1 central muscarinic cholinergic receptors   NOT MET
 9  Clc1ccc(-c2nnc(NCCCn3ccnc3)s2)c(Cl)c1 [SR - A]  M1 central muscarinic cholinergic receptors   NOT MET
10  Cc1cc(C)c(-c2nnc(NCCCN(C)C)s2)c(C)c1Br [SR 45340 A]  M1 central muscarinic cholinergic receptors   NOT MET
11  CCN(CC)CCCCNc1nnc(-c2ccccc2)s1 [SR 45339 A]  M1 central muscarinic cholinergic receptors   NOT MET
12  CNCCCNc1nnc(-c2c(C)cc(C)cc2C)s1.Cl.Cl [SR 45418 A, dihydrochloride]  M1 central muscarinic cholinergic receptors   NOT MET
13  Clc1ccc(-c2nnc(NCCCN3CCCC3)s2)c(Cl)c1 [SR 45458 A]  M1 central muscarinic cholinergic receptors       MET

Measured values drawn from patent US5086053A for this set.
